target.entity: ovine COX-2 (Ovis aries, UniProt P79208)
Construct: purchased Cayman (USA)
Sequence (P79208 17-603): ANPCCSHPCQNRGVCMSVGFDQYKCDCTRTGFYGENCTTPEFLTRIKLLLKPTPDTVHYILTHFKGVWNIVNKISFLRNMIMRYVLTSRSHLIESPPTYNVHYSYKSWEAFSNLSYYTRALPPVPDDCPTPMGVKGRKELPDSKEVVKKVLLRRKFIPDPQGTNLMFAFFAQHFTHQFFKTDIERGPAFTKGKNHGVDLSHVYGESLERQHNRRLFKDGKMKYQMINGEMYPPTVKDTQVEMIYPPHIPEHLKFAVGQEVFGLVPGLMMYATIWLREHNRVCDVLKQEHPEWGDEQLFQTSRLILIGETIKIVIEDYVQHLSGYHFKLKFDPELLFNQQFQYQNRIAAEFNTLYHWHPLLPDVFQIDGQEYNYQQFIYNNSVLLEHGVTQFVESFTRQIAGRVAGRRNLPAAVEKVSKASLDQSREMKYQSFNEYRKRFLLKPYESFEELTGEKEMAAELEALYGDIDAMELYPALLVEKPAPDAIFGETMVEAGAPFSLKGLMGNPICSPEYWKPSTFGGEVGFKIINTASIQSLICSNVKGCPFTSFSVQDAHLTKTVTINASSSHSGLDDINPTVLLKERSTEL
test.method.notes: Cyclooxygenase-2 inhibition study
Format: biochemical

smiles.structure: N#Cc1ccc(/C=C/C(=O)O)cc1
IC50 (µM): 65

* * *

test.method.notes: Inhibition of linoleic acid peroxidation (AAPH-induced)
Is AAPH inhibition (%, at 100 µM) at least 30%? Then yes. If not, no.

compound: COC(=O)CCCNC(=O)/C=C/c1ccc(Br)cc1 [Compound 14b]
label.value: no

compound: COC(=O)CCCNC(=O)/C=C/c1ccc2c(c1)OCO2 [Compound 20b]
label.value: no

compound: COC(=O)CCCNC(=O)/C=C/c1ccc(Cl)cc1 [Compound 16b]
label.value: no

compound: COC(=O)CCCNC(=O)/C=C/c1ccc(O)c(O)c1 [Compound 28b]
label.value: yes

compound: COC(=O)CC[C@H](NC(=O)/C=C/c1ccc(OCc2ccc(Br)cc2)cc1)C(=O)OC [Compound 11c]
label.value: yes

compound: CCOC(=O)CNC(=O)/C=C/c1ccc(C#N)cc1 [Compound 26a]
label.value: yes

compound: O=C(O)/C=C/c1ccc2c(c1)OCO2 [Compound 20]
label.value: yes

compound: COC(=O)CCCNC(=O)/C=C/c1ccc(O)c(OC)c1 [Compound 24b]
label.value: yes

compound: CCOC(=O)CNC(=O)/C=C/C=C/c1ccccc1 [Compound 23a]
label.value: yes

compound: COc1ccc(OC)c(/C=C/C(=O)O)c1 [Compound 19]
label.value: yes

compound: CCOC(=O)CNC(=O)/C=C/c1ccc(O)c(O)c1 [Compound 28a]
label.value: yes

compound: COC(=O)CCCNC(=O)/C=C/c1ccc(C#N)cc1 [Compound 26b]
label.value: no

compound: CCOC(=O)CNC(=O)/C=C/c1ccc2c(c1)OCO2 [Compound 20a]
label.value: yes

compound: COC(=O)CCC(NC(=O)C=Cc1ccc(O)c(O)c1)C(=O)OC (centres unmarked) [Compound 28c]
label.value: yes

compound: O=C(O)/C=C/c1ccc(O)cc1 [Compound 25, p-coumaric acid]
label.value: yes

compound: CC(=O)Oc1ccc(/C=C/C(=O)O)cc1 [Compound 30, (E)-3-(4-acetoxyphenyl) acrylic acid]
label.value: yes

compound: O=C(O)/C=C/c1ccc(Br)cc1 [Compound 14]
label.value: no

compound: COC(=O)CC[C@H](NC(=O)/C=C/c1ccc(F)cc1)C(=O)OC [Compound 27c]
label.value: no

compound: O=C(O)/C=C/c1ccc(C(F)(F)F)cc1 [Compound 13]
label.value: yes

compound: COC(=O)CC[C@H](NC(=O)/C=C/c1cccc(Oc2ccccc2)c1)C(=O)OC [Compound 12c]
label.value: yes

compound: COC(=O)CC[C@H](NC(=O)/C=C/c1ccc(OC(C)=O)cc1)C(=O)OC [Compound 30c]
label.value: no

compound: COC(=O)CC[C@H](NC(=O)/C=C/c1ccc(O)cc1)C(=O)OC [Compound 25c]
label.value: yes

compound: COC(=O)CC[C@H](NC(=O)/C=C/c1cccs1)C(=O)OC [Compound 21c]
label.value: yes

* * *

target.entity: ovine COX-2 (Ovis aries, UniProt P79208)
Construct: purchased Cayman (USA)
test.method.notes: Cyclooxygenase-2 inhibition study
Type: biochemical
study.conditions: % inhibition at 100 µM
Is COX-2 inhibition (%) at least 9%? Then yes. If not, no.

molecule: COC(=O)CCCNC(=O)/C=C/c1cccs1 [Compound 21b]
target.entity: ovine COX-2 (Ovis aries, UniProt P79208)
label.value: yes

molecule: CCOC(=O)CNC(=O)/C=C/c1ccc2c(c1)OC(C)(C)O2 [Compound 29a]
target.entity: ovine COX-2 (Ovis aries, UniProt P79208)
label.value: yes

molecule: COC(=O)CCCNC(=O)/C=C/c1cc(OC)ccc1OC [Compound 19b]
target.entity: ovine COX-2 (Ovis aries, UniProt P79208)
label.value: yes

molecule: COC(=O)CCCNC(=O)/C=C/c1ccc2c(c1)OC(C)(C)O2 [Compound 29b]
target.entity: ovine COX-2 (Ovis aries, UniProt P79208)
label.value: no

molecule: COC(=O)CC[C@H](NC(=O)/C=C/C=C/c1ccccc1)C(=O)OC [Compound 23c]
target.entity: ovine COX-2 (Ovis aries, UniProt P79208)
label.value: yes

molecule: COC(=O)CC[C@H](NC(=O)/C=C/c1ccc(OC(C)=O)cc1)C(=O)OC [Compound 30c]
target.entity: ovine COX-2 (Ovis aries, UniProt P79208)
label.value: no

molecule: CCOC(=O)CNC(=O)/C=C/c1ccc(OC)c(OC)c1 [Compound 18a]
target.entity: ovine COX-2 (Ovis aries, UniProt P79208)
label.value: yes

molecule: COC(=O)CCCNC(=O)/C=C/c1cccc(Br)c1 [Compound 15b]
target.entity: ovine COX-2 (Ovis aries, UniProt P79208)
label.value: yes
